# test_target: BTK (Homo sapiens, UniProt Q06187)
# Sequence (Q06187 whole entry): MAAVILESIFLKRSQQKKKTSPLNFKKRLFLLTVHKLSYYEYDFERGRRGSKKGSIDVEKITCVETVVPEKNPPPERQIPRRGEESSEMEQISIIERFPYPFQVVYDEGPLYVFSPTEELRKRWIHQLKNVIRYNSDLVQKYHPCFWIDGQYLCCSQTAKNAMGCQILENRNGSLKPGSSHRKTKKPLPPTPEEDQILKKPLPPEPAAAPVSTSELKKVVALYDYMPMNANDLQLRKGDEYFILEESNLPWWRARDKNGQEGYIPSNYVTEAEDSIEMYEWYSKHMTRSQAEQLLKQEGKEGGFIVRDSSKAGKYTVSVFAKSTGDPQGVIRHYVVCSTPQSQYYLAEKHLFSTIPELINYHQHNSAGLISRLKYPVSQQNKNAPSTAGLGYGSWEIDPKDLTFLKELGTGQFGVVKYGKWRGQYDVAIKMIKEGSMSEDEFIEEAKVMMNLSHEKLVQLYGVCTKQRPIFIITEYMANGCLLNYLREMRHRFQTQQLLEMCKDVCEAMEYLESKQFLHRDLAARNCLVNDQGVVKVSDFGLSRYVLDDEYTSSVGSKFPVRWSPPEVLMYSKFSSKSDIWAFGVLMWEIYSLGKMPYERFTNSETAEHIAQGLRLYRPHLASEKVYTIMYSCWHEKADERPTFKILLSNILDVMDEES

| molecule | IC50 |
| --- | --- |
| O=C(CNc1cc(Cl)cc(Cl)c1)N1CCC2CCN(c3ncnc4[nH]cnc34)C2C1 (centres unmarked) | < 100 nM |
| O=C(CNc1cc(Cl)cc(Cl)c1)N1CCC[C@@H](Nc2ncnc3[nH]ncc23)C1 | < 100 nM |
| CCC1C(Nc2ncnc(N)c2F)CCCN1C(=O)CNc1cc(F)cc(Cl)c1 (centres unmarked) | 1000 to 10000 nM |
| O=C(CNc1ccccc1)N1CCCC(Nc2ncnc3[nH]ncc23)C1 (centres unmarked) | 1000 to 10000 nM |
| O=C(CNc1cc(Cl)cc(Cl)c1)N1CC(Nc2ncnc3[nH]ccc23)Cc2ccccc21 (centres unmarked) | 100 to 999 nM |
| CN(c1ncnc2[nH]ccc12)C1CCCN(C(=O)CNc2cc(Cl)cc(C(F)(F)F)c2)C1C(F)(F)F (centres unmarked) | < 100 nM |
| CCN(c1ncnc2[nH]ccc12)[C@H]1CCCN(C(=O)CNc2cc(Cl)cc(Cl)c2)C1 | > 10000 nM |
| O=C(CNc1cc(Cl)cc(Cl)c1)N1CCCC(Nc2ncnc3[nH]ccc23)C1C(F)(F)F (centres unmarked) | < 100 nM |
| C[C@@H]1C[C@H](N(C)c2ncnc3[nH]ccc23)CN(C(=O)CNc2cc(Cl)cc(Cl)c2)C1 | < 100 nM |
| C[C@@H]1[C@@H](Nc2ncnc3[nH]ncc23)CCCN1C(=O)CNc1cc(F)cc(Cl)c1 | 1000 to 10000 nM |
| Nc1ncnc2c1ncn2C1CCCN(C(=O)CNc2cc(Cl)cc(Cl)c2)C1 (centres unmarked) | > 10000 nM |
| Nc1ncnc2c1ccn2C1CCCN(C(=O)CNc2cc(Cl)cc(Cl)c2)C1 (centres unmarked) | 1000 to 10000 nM |
| O=C(CNc1cccc(F)c1)N1CCC[C@H](Nc2ncnc3[nH]ncc23)C1 | > 10000 nM |
| O=C(CNc1cc(Cl)cc(Cl)c1)N1CC[C@H](Nc2ncnc3[nH]ncc23)C1 | > 10000 nM |
| CC1C(Nc2ncnc3[nH]ncc23)CCCN1C(=O)[C@@H](C)Nc1cc(Cl)cc(Cl)c1 (some centres unmarked) | < 100 nM |
| Nc1nccc(N[C@H]2CCCN(C(=O)CNc3cc(Cl)cc(Cl)c3)C2)n1 | > 10000 nM |
| O=C(CNc1cc(Cl)cc(Cl)c1)N1CCCC(N(CCN2CCCC2)c2ncnc3[nH]ccc23)C1 (centres unmarked) | 1000 to 10000 nM |

* * *

Read-out record for UniProt Q06187: IC50

| compound | test_target | IC50 |
| --- | --- | --- |
| C[C@H]1[C@@H](Nc2ncnc3[nH]ncc23)CCCN1C(=O)CNc1ccccc1S(=O)(=O)N1CCCCC1 | UniProt Q06187 | 1 to 10 µM |
| O=C(CNc1cc(Cl)cc(Cl)c1)N1CCCC(Nc2ncnc3[nH]ccc23)C1C1CCCC1 (stereo not drawn) | UniProt Q06187 | < 0.1 µM |
| O=C([C@H](Nc1cc(Cl)cc(Cl)c1)C1CC1)N1CCC[C@H](Nc2ncnc3[nH]ccc23)C1 | UniProt Q06187 | 1 to 10 µM |
| O=C(CNc1ccc(F)cc1)N1CCC[C@H](Nc2ncnc3[nH]ccc23)C1 | UniProt Q06187 | > 10 µM |
| CN(c1ncnc2[nH]ncc12)[C@H]1CCCN(C(=O)CNc2cc(Cl)cc(C(F)(F)F)c2)C1 | UniProt Q06187 | 1 to 10 µM |
| O=C(CNc1ccc(C(F)(F)F)cc1)N1CCC[C@H](Nc2ncnc3[nH]ccc23)C1 | UniProt Q06187 | > 10 µM |
| CCC[C@@H](Nc1cc(Cl)cc(Cl)c1)C(=O)N1CCCC(Nc2ncnc3[nH]ncc23)C1C (stereo partly drawn) | UniProt Q06187 | < 0.1 µM |
| O=C(CNc1cc(Cl)cc(Cl)c1)N1CC[C@H](Nc2ncnc3[nH]ccc23)C1 | UniProt Q06187 | > 10 µM |
| O=C(CNc1cc(Cl)cc(Cl)c1)N1CC2CC(Nc3ncnc4[nH]ncc34)C1C2 (stereo not drawn) | UniProt Q06187 | < 0.1 µM |
| CN(c1ncnc2[nH]ncc12)C1CC2CC1N(C(=O)CNc1cc(Cl)cc(Cl)c1)C2 (stereo not drawn) | UniProt Q06187 | 0.1 to 0.999 µM |
| NC(=O)c1cnc2[nH]ccc2c1NC1CCCN(C(=O)NCc2cc(Cl)cc(Cl)c2)C1 (stereo not drawn) | UniProt Q06187 | < 0.1 µM |
| COc1c(N)ncnc1N[C@H]1CCCN(C(=O)CNc2cc(Cl)cc(Cl)c2)C1 | UniProt Q06187 | > 10 µM |
